Where do the numbers come from? From PubChem BioAssay (NCI).

- Test system: OVCAR-5 ovarian
- PROCEDURE_SUMMARY: NCI tumour cell line growth inhibition, 48 h
OBSERVABLE: TGI (µM)

| MOLECULE | UNIT_ABBREV | RELATION_SYMBOL | NUMBER |
| --- | --- | --- | --- |
| O=c1oc2ccc(F)cc2c(=O)n1-c1ccc(Cl)cc1F | µM | > | 100 |
| O=C(Nc1ccc([N+](=O)[O-])cc1C(=O)O)c1ccc([N+](=O)[O-])cc1 | µM | > | 100 |
| Cn1c(=O)c2c(ncn2CCSS(=O)(=O)O)n(C)c1=O | µM | > | 100 |
| CCCC(=O)/C=C/S/C=C/C(=O)CCC | µM | = | 9.69 |
| Cc1nc(N)c(N2CCN(Cc3ccccc3)CC2)c(=O)[nH]1 | µM | > | 100 |
| COc1cc(C(=O)/C=C/c2c(-c3ccc(F)cc3)nc3ncccn23)cc(OC)c1OC | µM | = | 7.37 |
| COc1ccc(N=Nc2c(C)c(C#N)c(=S)n(C3OC(COC(C)=O)C(OC(C)=O)C(OC(C)=O)C3OC(C)=O)c2-c2ccccc2)cc1 (stereo unspecified) | µM | = | 30.8 |
| C=C(CN(C)C)C(=O)c1cc(C)ccc1C | µM | = | 31.2 |
| CN1C(=O)c2cc([N+](=O)[O-])ccc2[C@H]2C(=O)c3cc4c(cc3[C@H]21)OCO4 | µM | = | 0.926 |
| C[N+](C)(C)C1(C(=O)[O-])CC1 | µM | > | 100 |
| Cn1ccnc1C(=O)/C=C/c1ccc(C(=O)Nc2ccccc2O)cc1 | µM | = | 7.09 |
